These entries and their values trace back to paper PMC11435058.

- Test system: SK-OV-3
- TEST DESCRIPTION: NCI-60 anticancer screen (SRB; single dose and five doses)
- SETUP CONDITIONS: Homo sapiens, SK-OV-3, 48 h, read-out: Growth Percentage
# cutoff 60% applies to activity at 10 µM; >= gives Criterion met, < gives Criterion not met

INSERT INTO assay_data (compound, group_label) VALUES
  ('COc1cc(/C=C/C(=O)c2sc(=S)[nH]c2C)cc(OC)c1OC [2p]', 'Criterion not met'),
  ('COc1ccc(/C=C/C(=O)c2sc(=S)[nH]c2C)c(OC)c1 [2n]', 'Criterion met'),
  ('Cc1ccc(/C=C/C(=O)c2sc(=S)[nH]c2C)cc1 [2j]', 'Criterion met'),
  ('Cc1[nH]c(=S)sc1C(=O)/C=C/c1ccccc1Cl [2d]', 'Criterion met'),
  ('Cc1[nH]c(=S)sc1C(=O)/C=C/c1cccc([N+](=O)[O-])c1 [2h]', 'Criterion not met');

---

- Test system: SK-MEL-2
- TEST DESCRIPTION: NCI-60 anticancer screen (SRB; single dose and five doses)
- SETUP CONDITIONS: Homo sapiens, SK-MEL-2, read-out: LC50
MEASUREMENT TYPE: CC50 (µM)

INSERT INTO measurements (smiles_input, measurement_type, unit_name, value_measured) VALUES
  ('COc1cc(/C=C/C(=O)c2sc(=S)[nH]c2C)cc(OC)c1OC', 'CC50', 'µM', 42.7),
  ('Cc1[nH]c(=S)sc1C(=O)/C=C/c1ccc(F)cc1', 'CC50', 'µM', 50.1),
  ('Cc1[nH]c(=S)sc1C(=O)/C=C/c1ccc(Cl)cc1', 'CC50', 'µM', 56.2),
  ('Cc1[nH]c(=S)sc1C(=O)/C=C/c1ccc([N+](=O)[O-])cc1', 'CC50', 'µM', 62);

---

- Test system: HT29
- TEST DESCRIPTION: NCI-60 anticancer screen (SRB; single dose and five doses)
- SETUP CONDITIONS: Homo sapiens, HT-29, 48 h, read-out: Growth Percentage
Field: class. Source value: activity at 10 µM. Ranges: I (below 40%), II (40% to below 80%), III (80% or more)

INSERT INTO results (smiles_input, group_label) VALUES
  ('Cc1ccc(/C=C/C(=O)c2sc(=S)[nH]c2C)cc1', 'III'),
  ('Cc1[nH]c(=S)sc1C(=O)/C=C/c1ccccc1', 'III'),
  ('Cc1[nH]c(=S)sc1C(=O)/C=C/c1cccc([N+](=O)[O-])c1', 'I'),
  ('Cc1[nH]c(=S)sc1C(=O)/C=C/c1ccc(F)cc1', 'II'),
  ('Cc1[nH]c(=S)sc1C(=O)/C=C/c1cccc(Cl)c1', 'I'),
  ('Cc1[nH]c(=S)sc1C(=O)/C=C/c1cccc(F)c1', 'II'),
  ('Cc1[nH]c(=S)sc1C(=O)/C=C/c1ccc(Br)cc1', 'II'),
  ('Cc1[nH]c(=S)sc1C(=O)/C=C/c1ccc([N+](=O)[O-])cc1', 'II');

---

// reported IC (TGI) per item
- Test system: TK-10
- TEST DESCRIPTION: NCI-60 anticancer screen (SRB; single dose and five doses)
- SETUP CONDITIONS: Homo sapiens, TK-10, read-out: TGI
MEASUREMENT TYPE: IC (TGI) (µM)

INSERT INTO assay_data (smiles_input, measurement_type, unit_name, value_measured) VALUES
  ('Cc1[nH]c(=S)sc1C(=O)/C=C/c1ccc([N+](=O)[O-])cc1', 'IC (TGI)', 'µM', 25.3),
  ('Cc1[nH]c(=S)sc1C(=O)/C=C/c1cccc(Cl)c1', 'IC (TGI)', 'µM', 47.9),
  ('Cc1[nH]c(=S)sc1C(=O)/C=C/c1ccc(Br)cc1', 'IC (TGI)', 'µM', 11.8),
  ('Cc1[nH]c(=S)sc1C(=O)/C=C/c1ccc(F)cc1', 'IC (TGI)', 'µM', 25.2),
  ('Cc1[nH]c(=S)sc1C(=O)/C=C/c1ccc(Cl)cc1', 'IC (TGI)', 'µM', 28.8),
  ('COc1cc(/C=C/C(=O)c2sc(=S)[nH]c2C)cc(OC)c1OC', 'IC (TGI)', 'µM', 17.8),
  ('Cc1[nH]c(=S)sc1C(=O)/C=C/c1cccc([N+](=O)[O-])c1', 'IC (TGI)', 'µM', 23.4);

---

- Tested on: OVCAR-5
- TEST DESCRIPTION: NCI-60 anticancer screen (SRB; single dose and five doses)
- SETUP CONDITIONS: Homo sapiens, OVCAR-5, 48 h, read-out: Growth Percentage
Attribute: activity at 10 µM
MEASUREMENT TYPE: activity at 10 µM (%)

INSERT INTO results (molecule, target_system, measurement_type, value_measured) VALUES
  ('COc1ccc(/C=C/C(=O)c2sc(=S)[nH]c2C)cc1OC [2o]', 'OVCAR-5', 'activity at 10 µM', 131),
  ('Cc1ccc(/C=C/C(=O)c2sc(=S)[nH]c2C)cc1 [2j]', 'OVCAR-5', 'activity at 10 µM', 138),
  ('Cc1[nH]c(=S)sc1C(=O)/C=C/c1ccc(F)cc1 [2c]', 'OVCAR-5', 'activity at 10 µM', 119);

---

The reader will find reported CC50 values listed item by item below.
- Tested on: OVCAR-8
- TEST DESCRIPTION: NCI-60 anticancer screen (SRB; single dose and five doses)
- SETUP CONDITIONS: Homo sapiens, OVCAR-8, read-out: LC50
MEASUREMENT TYPE: CC50 (µM)

INSERT INTO results (smiles_input, value_measured) VALUES
  ('Cc1[nH]c(=S)sc1C(=O)/C=C/c1cccc([N+](=O)[O-])c1', 38),
  ('Cc1[nH]c(=S)sc1C(=O)/C=C/c1ccc(F)cc1', 50.9),
  ('Cc1[nH]c(=S)sc1C(=O)/C=C/c1ccc(Cl)cc1', 55),
  ('Cc1[nH]c(=S)sc1C(=O)/C=C/c1ccc(Br)cc1', 37.1);

---

- System: IGROV1
- TEST DESCRIPTION: NCI-60 anticancer screen (SRB; single dose and five doses)
- SETUP CONDITIONS: Homo sapiens, IGROV-1, 48 h, read-out: Growth Percentage
Kindly apply the following: Condition met if activity at 10 µM is less than 30%, Condition not met in every other case.

INSERT INTO results (compound, group_label) VALUES
  ('Cc1[nH]c(=S)sc1C(=O)/C=C/c1cccc(F)c1 [2b]', 'Condition not met'),
  ('Cc1[nH]c(=S)sc1C(=O)/C=C/c1ccc(Br)cc1 [2g]', 'Condition not met'),
  ('Cc1[nH]c(=S)sc1C(=O)/C=C/c1ccc(F)cc1 [2c]', 'Condition not met'),
  ('Cc1[nH]c(=S)sc1C(=O)/C=C/c1cccc(Cl)c1 [2e]', 'Condition not met'),
  ('COc1cccc(/C=C/C(=O)c2sc(=S)[nH]c2C)c1OC [2m]', 'Condition not met'),
  ('Cc1[nH]c(=S)sc1C(=O)/C=C/c1cccc([N+](=O)[O-])c1 [2h]', 'Condition met');
